Taken from PubChem BioAssay.

# Protocol Summary: binders of probe aFGF10 on microarray, primary screen, stem cell growth factor project, biochemical, small-molecule microarray, fluorescence 635/667 (AID 1071);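 note: score merges 667 nm spot intensity and signal to noise from triplicate slides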
# Assay Setup: higher = more signal
Please use the following composite z-score ranges when assigning a class: lo: < -0.06; med: ≥ -0.06 and < 0.3; hi: ≥ 0.3

Band for the recorded composite z-score of C[C@@H]1CC[C@H]2C(=O)OC(CN3C(=O)c4ccccc4C3=O)CN2[C@H]1c1ccc(Br)cc1 (stereo partly specified) ?
med

State the class of the compound shown: C[C@@H]1CC[C@H]2C(=O)OC(Cc3ccccc3)CN2[C@H]1c1ccc(Br)cc1 (stereo partly specified)
hi

// return the class label for "CCOC(=O)CCN1C(=O)[C@H]2[C@@H]3C(=CC[C@H]2C1=O)C(=O)[C@H]1O[C@H]1[C@H]3O"
lo
